Tested on: IGROV1 ovarian
Test Summary: NCI-60 one-dose screen, 48 h (100 = growth as untreated, 0 = no growth, -100 = all killed)
Condition Info: 10 µM unless noted
Compounds without any hit were thinned out: in the full panel of roughly 83,000, 20% have a hit.
Parameter Measured: growth (%)

> print(dat)
                                    molecule          system  reading.unit  quantitative.readout
 1  COc1ccc(/C=C/C(=O)/C=C(/C=C/c2ccc(OC)c(OC)c2)OB(F)F)cc1OC  IGROV1 ovarian             %                  49.6
 2  NS(=O)(=O)c1ccc(C2C3=C(CCCC3=O)OC3=C2C(=O)c2ccccc2C3=O)cc1 (centres undefined)  IGROV1 ovarian             %                 -52.3
 3  CCCCn1c(=O)c(/C=C/C(=O)/C=C/c2ccc(OC)cc2)cc2cc(Cl)ccc21  IGROV1 ovarian             %                  59.1
 4  COC(=O)c1cc2c3c(cc(O)c2[nH]1)N(C(=O)C1Cc2cc(OC)c(OC)c(OC)c2N1)CC3CCl (centres undefined)  IGROV1 ovarian             %                 -10.6
 5   Nc1c(C(=O)Nc2ccccn2)sc2nc3c(cc12)CCCCC3  IGROV1 ovarian             %                  44.9
 6  CN1CCN(CC#CCOC(=O)CNC(=O)[C@]23CCC(C)(C)C[C@H]2C2=CC[C@@H]4[C@@]5(C)CC[C@H](O)C(C)(C)[C@@H]5CC[C@@]4(C)[C@]2(C)CC3)CC1  IGROV1 ovarian             %                  90.4
 7  O=C(Nc1ccc(S(=O)(=O)NC2CCCCCC2)cc1)C(c1ccccc1)S(=O)(=O)c1ccc(F)cc1 (centres undefined)  IGROV1 ovarian             %                   9.4
 8  N#Cc1c(NC(=O)c2cccs2)[n+]([O-])c2cc(C(F)(F)F)ccc2[n+]1[O-]  IGROV1 ovarian             %                 -54.2
 9  Cc1c(Cl)cccc1NC(=O)c1sc2nc3c(cc2c1N)CCCCC3  IGROV1 ovarian             %                  54.9
10  Cc1cc(C)c2nc(Nc3nc(C)c(C)c(=O)[nH]3)nc(C)c2c1  IGROV1 ovarian             %                  9.55
11  c1ccc(-c2n(Cc3ccc4ccccc4n3)cc[n+]2Cc2ccc3ccccc3n2)cc1  IGROV1 ovarian             %                  33.9
12         NC(N)=NC(N)=Nc1cc2ccccc2c2ccccc12  IGROV1 ovarian             %                  17.2
13  C=C1C(=O)O[C@H]2[C@H]1CC/C(COC(=O)n1ccnc1)=C\CC[C@@]1(C)O[C@@H]21  IGROV1 ovarian             %                  77.7
14  CCCCN(CCCC)CC(CN(CC)CC)OC(=O)Nc1ccccc1 (centres undefined)  IGROV1 ovarian             %                    57
